Cited source: patent US20150307520A1

- TGT: p110β/p85α (Homo sapiens, UniProt P42338)
- Sequence (P42338 whole entry): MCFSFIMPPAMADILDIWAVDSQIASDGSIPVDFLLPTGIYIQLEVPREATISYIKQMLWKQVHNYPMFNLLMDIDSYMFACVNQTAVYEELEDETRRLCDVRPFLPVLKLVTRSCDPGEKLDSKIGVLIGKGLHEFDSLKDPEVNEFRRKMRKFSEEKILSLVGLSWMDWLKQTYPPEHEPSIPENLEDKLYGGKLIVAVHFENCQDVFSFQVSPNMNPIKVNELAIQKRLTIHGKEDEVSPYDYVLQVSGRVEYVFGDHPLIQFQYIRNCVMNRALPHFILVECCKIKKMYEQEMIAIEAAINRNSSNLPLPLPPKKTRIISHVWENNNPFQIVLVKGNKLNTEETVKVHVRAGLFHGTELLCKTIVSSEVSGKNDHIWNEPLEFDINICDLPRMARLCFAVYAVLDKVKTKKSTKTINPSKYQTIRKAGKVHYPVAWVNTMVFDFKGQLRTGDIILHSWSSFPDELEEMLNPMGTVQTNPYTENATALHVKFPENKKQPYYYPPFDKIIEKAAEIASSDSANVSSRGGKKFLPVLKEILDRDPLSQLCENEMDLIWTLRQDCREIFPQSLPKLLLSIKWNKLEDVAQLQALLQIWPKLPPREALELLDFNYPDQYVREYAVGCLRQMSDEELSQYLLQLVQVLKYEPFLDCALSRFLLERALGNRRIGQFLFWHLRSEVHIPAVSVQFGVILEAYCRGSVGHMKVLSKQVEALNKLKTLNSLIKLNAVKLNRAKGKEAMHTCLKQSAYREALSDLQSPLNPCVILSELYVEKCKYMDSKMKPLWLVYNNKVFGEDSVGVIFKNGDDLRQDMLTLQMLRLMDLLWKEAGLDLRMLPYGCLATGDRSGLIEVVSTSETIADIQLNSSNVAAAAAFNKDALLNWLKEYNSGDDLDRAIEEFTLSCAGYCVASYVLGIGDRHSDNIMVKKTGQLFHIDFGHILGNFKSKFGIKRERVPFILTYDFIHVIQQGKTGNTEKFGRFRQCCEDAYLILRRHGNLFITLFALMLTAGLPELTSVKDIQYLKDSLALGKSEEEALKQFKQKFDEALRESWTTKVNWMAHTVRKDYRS
- Sequence (P27986 2-724 partner): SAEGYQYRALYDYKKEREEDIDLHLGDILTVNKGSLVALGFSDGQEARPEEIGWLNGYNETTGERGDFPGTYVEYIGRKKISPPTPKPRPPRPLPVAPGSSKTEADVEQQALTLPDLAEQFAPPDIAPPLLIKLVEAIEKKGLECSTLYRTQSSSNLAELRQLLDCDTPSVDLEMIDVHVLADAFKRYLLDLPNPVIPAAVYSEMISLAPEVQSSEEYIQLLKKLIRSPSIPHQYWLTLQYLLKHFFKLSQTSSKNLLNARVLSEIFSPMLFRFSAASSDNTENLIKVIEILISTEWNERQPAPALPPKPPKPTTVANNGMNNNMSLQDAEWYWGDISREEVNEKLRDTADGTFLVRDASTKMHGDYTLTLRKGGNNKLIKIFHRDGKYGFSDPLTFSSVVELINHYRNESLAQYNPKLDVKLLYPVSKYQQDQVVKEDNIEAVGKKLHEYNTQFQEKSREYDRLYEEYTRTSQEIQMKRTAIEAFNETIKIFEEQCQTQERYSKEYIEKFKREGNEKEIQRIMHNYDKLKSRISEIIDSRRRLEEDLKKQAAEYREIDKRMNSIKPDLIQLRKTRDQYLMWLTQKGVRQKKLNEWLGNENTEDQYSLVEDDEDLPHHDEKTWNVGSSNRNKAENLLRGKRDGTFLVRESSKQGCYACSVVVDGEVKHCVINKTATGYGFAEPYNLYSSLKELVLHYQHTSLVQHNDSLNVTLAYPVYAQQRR
- EXPERIMENT_NOTES: Transcreener KINASE Assay, kinase inhibition of p110β/p85α
- Format: biochemical
- MEASUREMENT_CONDITIONS: 1 uM test compound
Answer NOT MET if PI3Kβ IH % @ 1 uM is under 40%, and MET if it is 40% or more.

Past entries and their recorded results:
| COMPOUND | ASSIGNED_CLASS |
| --- | --- |
| C[C@H]1CN(c2nc(N)ncc2C#N)[C@@H]1c1nn2ccc(Cl)c2c(=O)n1-c1ccccn1 [Compound 477] | NOT MET |
| C[C@H](Nc1nc(N)ncc1C#N)c1cc2ncc(Cl)n2c(=O)n1-c1ccccc1 (single isomer, unassigned) [Compound 385] | MET |
| CCC(=O)c1cnc(N)nc1N1CC[C@H]1c1nn2ccc(Cl)c2c(=O)n1-c1ccccc1 [Compound 362] | NOT MET |

Prompt: Test whether the compound CC(Nc1ncnc(N)c1C#N)c1cc2ccc(Cl)n2c(=O)n1-c1ccccc1 (stereo not shown) [Compound 125] records PI3Kβ IH % @ 1 uM of 40% or higher.
Completion: MET

Prompt: Test whether the compound Nc1nc(N2CCC[C@H]2c2nn3ccc(Cl)c3c(=O)n2-c2ccccc2)c2ncccc2n1 [Compound 335] records PI3Kβ IH % @ 1 uM of 40% or higher.
Completion: NOT MET

Prompt: Test whether the compound N#Cc1c[nH]c2ncnc(N3CC[C@H]3c3nn4ccc(F)c4c(=O)n3-c3ccccc3)c12 [Compound 46] records PI3Kβ IH % @ 1 uM of 40% or higher.
Completion: NOT MET

Prompt: Test whether the compound O=c1c2c(Cl)ccn2nc([C@@H]2CCCN2c2ncnc3[nH]cnc23)n1-c1ccc(F)cc1 [Compound 41] records PI3Kβ IH % @ 1 uM of 40% or higher.
Completion: MET

Prompt: Test whether the compound C[C@H]1CN(c2nc(N)ncc2C#N)[C@@H]1c1nn2ccc(C(F)(F)F)c2c(=O)n1-c1ccccc1 [Compound 490] records PI3Kβ IH % @ 1 uM of 40% or higher.
Completion: NOT MET

Prompt: Test whether the compound C[S+]([O-])c1n[nH]c2ncnc(N3CC[C@H]3c3nn4ccc(Cl)c4c(=O)n3-c3ccccc3)c12 (stereo partly shown) [Compound 353] records PI3Kβ IH % @ 1 uM of 40% or higher.
Completion: NOT MET

Prompt: Test whether the compound N#Cc1c[nH]c2ncnc(N3CCC[C@H]3c3nn4ccc(Cl)c4c(=O)n3CC(F)(F)F)c12 [Compound 67] records PI3Kβ IH % @ 1 uM of 40% or higher.
Completion: MET

Prompt: Test whether the compound O=c1c2c(Cl)ccn2nc([C@@H]2CCCN2c2ncnc3[nH]cnc23)n1-c1ccncn1 [Compound 344] records PI3Kβ IH % @ 1 uM of 40% or higher.
Completion: MET

Prompt: Test whether the compound Cc1ccn2nc([C@@H]3CCCN3c3ncnc4[nH]cnc34)n(-c3ccccc3)c(=O)c12 [Compound 43] records PI3Kβ IH % @ 1 uM of 40% or higher.
Completion: MET

Prompt: Test whether the compound COc1cnc(N)nc1N1CC[C@H]1c1nn2ccc(Cl)c2c(=O)n1-c1ccccc1 [Compound 284] records PI3Kβ IH % @ 1 uM of 40% or higher.
Completion: NOT MET

Prompt: Test whether the compound C[C@H]1CN(c2nc(N)ncc2Cl)[C@@H]1c1nn2ccc(Cl)c2c(=O)n1-c1ccccc1 [Compound 465] records PI3Kβ IH % @ 1 uM of 40% or higher.
Completion: MET

Prompt: Test whether the compound NC(=O)c1c[nH]c2ncnc(N3CCC[C@H]3c3nn4ccc(Cl)c4c(=O)n3-c3ccccc3)c12 [Compound 95] records PI3Kβ IH % @ 1 uM of 40% or higher.
Completion: MET

Prompt: Test whether the compound N#C[C@H]1C[C@@H](c2nn3ccc(Cl)c3c(=O)n2-c2cccc(F)c2)N(c2ncnc3[nH]cnc23)C1 [Compound 347] records PI3Kβ IH % @ 1 uM of 40% or higher.
Completion: MET

Prompt: Test whether the compound C[S@@+]([O-])c1c[nH]c2ncnc(N3C[C@@H](C#N)C[C@H]3c3nn4ccc(Cl)c4c(=O)n3-c3cccc(F)c3)c12 [Compound 349] records PI3Kβ IH % @ 1 uM of 40% or higher.
Completion: NOT MET

Prompt: Test whether the compound C[C@H]1CN(c2nc(N)ncc2C#N)C1c1nn2ccc(Cl)c2c(=O)n1-c1ccccc1 (stereo partly shown) [Compound 431] records PI3Kβ IH % @ 1 uM of 40% or higher.
Completion: MET

Prompt: Test whether the compound CC(Nc1ncnc2[nH]cc(C#N)c12)c1cc2c(Cl)cc(Cl)n2c(=O)n1-c1cccc(F)c1 (stereo not shown) [Compound 129] records PI3Kβ IH % @ 1 uM of 40% or higher.
Completion: NOT MET
